measured_on: T1, bacterially produced human IL-6 (Homo sapiens, UniProt P05231)
T1 construct: His
assay_details: Surface plasmon resonance (Biacore), bacterially produced human IL-6 coated on CM5 chip
Format: binding
test_settings: bact; periplasmic fractions, 28A6 chain-shuffled

{"molecule": "48H1g2, R4: 28A6 chain-shuffled Fab, periplasmic fraction (antibody, V domains shown) VH: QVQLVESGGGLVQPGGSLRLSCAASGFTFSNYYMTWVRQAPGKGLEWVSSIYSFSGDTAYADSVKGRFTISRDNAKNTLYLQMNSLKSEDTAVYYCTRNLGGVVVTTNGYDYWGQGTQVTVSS VL: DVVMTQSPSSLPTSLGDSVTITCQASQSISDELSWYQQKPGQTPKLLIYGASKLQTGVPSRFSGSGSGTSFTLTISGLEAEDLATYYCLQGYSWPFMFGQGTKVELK", "ka, M⁻¹ s⁻¹": 206000}
